Tested on: Plasmodium berghei
Assay: Screen against P. berghei liver stage (PbLuc), transformed with Luciferase, at 2uM
Type: functional, HepG2
Conditions: tested at 2 uM
Out of some 68,000 compounds screened, about 2,700 (4%) showed an effect of 50% or more. The entries come from a sample that favours strong results as a whole.
Rule: measured INHIBITION below -10% gets Y; anything equal to or greater than -10% gets N.

Solved entries (count: 2):
CCCOCC(=O)NS(=O)(=O)c1ccc2c(c1)OCCCO2 : Y
Cn1c(CC2CCS(=O)(=O)C2)nnc1SCCOc1ccccc1F (stereo unspecified) : N

Challenge: Determine if `CCOc1cc(C)nc(N2CCN(C(=O)c3csnn3)CC2)n1` shows INHIBITION strictly lower than -10%.
Response given: Y

Challenge: Same question for `Cc1cccc(-n2nc(CC(C)C)nc2CCC(=O)N(C)C)c1` please.
Response given: N

Challenge: Also Cc1ccc(C)c(CC(=O)NC2CCC(N3C(=O)CCC3=O)CC2)c1 (stereo unspecified) , if possible.
Response given: Y

Challenge: Do the same for `COCCCC(=O)NS(=O)(=O)c1ccc2c(c1)OCCCO2` please
Response given: N

Challenge: Then what about the compound `CC(C)(C)C(=O)NCCC(=O)NS(=O)(=O)c1ccc2c(c1)OCCO2` ?
Response given: N

Challenge: Also need `COc1ccc(CNC(=O)N(Cc2ccc(F)cc2F)C2CC2)cn1` , thanks.
Response given: Y

Challenge: Also, `Cc1ccc(C)c(CC(=O)NC2CCS(=O)(=O)CC2)c1` please.
Response given: N

Challenge: CS(=O)(=O)c1ccc(C(O)CN2CCC(c3ccn[nH]3)CC2)cc1 (stereo unspecified) ?
Response given: N

Challenge: Could you do the same for c1ccc(N2CCCC3(CCN(Cc4ccsc4)C3)C2)nc1 (stereo unspecified) , please?
Response given: N
